- Tested on: S. typhimurium GC 2172
- PROTOCOL DETAILS: MIC, broth microdilution
- TEST CONDITIONS: Salmonella enterica, TYPHIMURIUM, S. typhimurium GC 2172; Mouse Serum pre-incubation
TEST READOUT: MIC (µg/mL)
Record the value in µg/mL, omitting the unit from your answer.

COMPOUND: CCCN(CC(=O)Nc1cc(N(C)C)c2c(c1O)C(=O)C1=C(O)[C@]3(O)C(=O)C(C(N)=O)=C(O)[C@@H](N(C)C)[C@@H]3C[C@@H]1C2)C(=O)OCOC(=O)c1ccc(OC)cc1 [Example 6]
REPORTED VALUE: 8
//
COMPOUND: CCCCN(CC(=O)Nc1cc(N(C)C)c2c(c1O)C(=O)C1=C(O)[C@]3(O)C(=O)C(C(N)=O)=C(O)[C@@H](N(C)C)[C@@H]3C[C@@H]1C2)C(=O)OCOC(=O)Cc1ccccc1 [Example 12]
REPORTED VALUE: 4
//
COMPOUND: CCCCN(CC(=O)Nc1cc(N(C)C)c2c(c1O)C(=O)C1=C(O)[C@]3(O)C(=O)C(C(N)=O)=C(O)[C@@H](N(C)C)[C@@H]3C[C@@H]1C2)C(=O)OCOC(=O)c1ccc(F)cc1 [Example 4]
REPORTED VALUE: 4

Task item: What value of MIC has been recorded for this entry: CCCN(CC(=O)Nc1cc(N(C)C)c2c(c1O)C(=O)C1=C(O)[C@]3(O)C(=O)C(C(N)=O)=C(O)[C@@H](N(C)C)[C@@H]3C[C@@H]1C2)C(=O)OCOC(=O)c1ccc(C)cc1 [Example 5]
Reply: 8

====

- Test system: E. coli GC 2233
- PROTOCOL DETAILS: MIC, broth microdilution
- TEST CONDITIONS: Escherichia coli, GC2233, E. coli GC 2233; Mouse Serum pre-incubation
TEST READOUT: MIC
# do not omit the unit; it follows the number

Illustrative cases are given below, each with its answer.
COMPOUND: CCCCN(CC(=O)Nc1cc(N(C)C)c2c(c1O)C(=O)C1=C(O)[C@]3(O)C(=O)C(C(N)=O)=C(O)[C@@H](N(C)C)C3CC1C2)C(=O)OCOC(=O)c1ccc(C)cc1 (stereo partly drawn) [Example 3]
MIC: 1 µg/mL
--
COMPOUND: CCCN(CC(=O)Nc1cc(N(C)C)c2c(c1O)C(=O)C1=C(O)[C@]3(O)C(=O)C(C(N)=O)=C(O)[C@@H](N(C)C)[C@@H]3C[C@@H]1C2)C(=O)OCOC(=O)c1ccc(OC)cc1 [Example 6]
MIC: 2 µg/mL

Turning now to a further record.
Task item: What value of MIC has been recorded for this entry: CCCN(CC(=O)Nc1cc(N(C)C)c2c(c1O)C(=O)C1=C(O)[C@]3(O)C(=O)C(C(N)=O)=C(O)[C@@H](N(C)C)[C@@H]3C[C@@H]1C2)C(=O)OCOC(=O)c1ccc(C)cc1 [Example 5]
Reply: 2 µg/mL

====

Quick reference: MIC of the listed items.
- Tested on: Salmonella spp. GC 566
- PROTOCOL DETAILS: MIC, broth microdilution
- TEST CONDITIONS: Salmonella, SPP.GC566, Salmonella spp. GC 566; Mouse Serum pre-incubation
Record the value in µg/mL, omitting the unit from your answer.

COMPOUND: CCCCN(CC(=O)Nc1cc(N(C)C)c2c(c1O)C(=O)C1=C(O)[C@]3(O)C(=O)C(C(N)=O)=C(O)[C@@H](N(C)C)C3CC1C2)C(=O)OCOC(=O)c1ccc(OC)cc1 (some centres unmarked) [Example 2]
MIC [µg/mL]: 8
--
COMPOUND: CCCN(CC(=O)Nc1cc(N(C)C)c2c(c1O)C(=O)C1=C(O)[C@]3(O)C(=O)C(C(N)=O)=C(O)[C@@H](N(C)C)[C@@H]3C[C@@H]1C2)C(=O)OCOC(=O)C(C)(C)C [Example 9]
MIC [µg/mL]: 2

Task item: What value of MIC has been recorded for this entry: CCCCN(CC(=O)Nc1cc(N(C)C)c2c(c1O)C(=O)C1=C(O)[C@]3(O)C(=O)C(C(N)=O)=C(O)[C@@H](N(C)C)[C@@H]3C[C@@H]1C2)C(=O)OCOC(=O)Cc1ccccc1 [Example 12]
Reply: 4

Task item: Consider next the compound CCCN(CC(=O)Nc1cc(N(C)C)c2c(c1O)C(=O)C1=C(O)[C@]3(O)C(=O)C(C(N)=O)=C(O)[C@@H](N(C)C)[C@@H]3C[C@@H]1C2)C(=O)OCOC(=O)C1CCC1 [Example 7] in the same way.
Reply: 1

Cited source for all entries: patent US20070049564A1
